assay: self-splicing fitness, log relative to wild type (ln ratio); higher = more splicing; Tetrahymena group I intron in knt gene, E. coli kanamycin selection, DiMSum; sequences stand for … in CUCUCU…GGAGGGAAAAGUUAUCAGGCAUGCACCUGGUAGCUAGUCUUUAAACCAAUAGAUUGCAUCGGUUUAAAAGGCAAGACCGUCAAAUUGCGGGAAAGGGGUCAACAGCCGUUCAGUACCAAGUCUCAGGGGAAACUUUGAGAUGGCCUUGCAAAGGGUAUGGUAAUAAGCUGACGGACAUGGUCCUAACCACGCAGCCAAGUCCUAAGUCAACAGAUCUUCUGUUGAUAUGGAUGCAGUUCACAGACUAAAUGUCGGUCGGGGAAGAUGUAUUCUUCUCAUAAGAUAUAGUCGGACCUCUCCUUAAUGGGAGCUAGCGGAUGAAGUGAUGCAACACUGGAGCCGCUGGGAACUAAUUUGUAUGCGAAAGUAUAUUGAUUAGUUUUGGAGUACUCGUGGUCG; conditions: 30 °C;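 further: selection with 25 µg/mL kanamycin versus none on LB agar overnight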
Kindly return T if reported self-splicing fitness (ln) is no lower than -3; return F if it is lower.

primary_sequence	qualitative_label
UGAUAGCAAUAUUACGACGU	T
GCCAAGCAAUAUUACGAGCG	T
GGGUAGCAAUAUUACGACUG	T
AGUCAGCAAUAUUACGCGCA	T

I'd appreciate it if you could say whether AUGGAGCAAUAUUACGCGGU has self-splicing fitness (ln) at least equal to -3.
T

I'd appreciate it if you could say whether AUGCAGCAAUAUUACGCAUG has self-splicing fitness (ln) at least equal to -3.
F

I'd appreciate it if you could say whether CGAUAGCAAUAUUACGGGAU has self-splicing fitness (ln) at least equal to -3.
F
